Please provide measured inhibition for the entries that follow.
Assay: growth suppression of yeast trafficking mutant, preliminary HTS, modulators of trafficking downstream of Golgi apparatus project, 1536-format plate, OD 615 nm (AID 637); note: test concentration not given here
Conditions: yeast transport mutant growth, absorbance 615 nm, 18 h; stronger effect = higher value
# unit: % | format: bare number

Problem: Output measured inhibition for this item: O=C(CN1CCN(C(=O)c2ccccc2)CC1)Nc1ncc(Br)cc1Br
Solution: -5.74

Problem: Please report inhibition for the following compound: CN(C)S(=O)(=O)c1ccc(C(=O)NCc2cccs2)cc1
Solution: 3.81

Problem: Using known records, supply inhibition for CCOc1ccc(Oc2nc(Nc3ccc(C)cc3)nc(N(C)C)n2)nn1
Solution: 1.97

Problem: Please list inhibition recorded for the compound O=C(O)C1CC=CCC1C(=O)NCc1ccccc1 (centres undefined)
Solution: -2.38

Problem: Find the measured inhibition of CC(C)(C)C1=C[C@@H](CO)C[C@@H](CO)C1 and report it.
Solution: -5.08

Problem: Read off the recorded inhibition for C#CCN1C(=O)C(O)(CC(=O)c2cccc(OC)c2)c2ccccc21 (centres undefined)
Solution: 1.67

Problem: Write down inhibition measured for item CCCN(Cc1cc2cc(C)ccc2[nH]c1=O)C(=O)c1cccc(OC)c1
Solution: -0.65

Problem: Provide only the value of recorded inhibition for Cc1ccc(C)c(N2CCN(S(=O)(=O)c3ccc4c(c3)OCCO4)CC2)c1
Solution: -3.97

Problem: Report inhibition for Cc1cc(NS(=O)(=O)c2ccccc2)n(-c2ccccc2)n1
Solution: 2.1

Problem: Report measured inhibition; entry is CCCNC(=O)c1ccccc1C(=O)NCCC
Solution: 18.9

Problem: Tell me its inhibition given CCCCCCNC(=O)Cc1c(O)c2ccccc2[nH]c1=O as the entry.
Solution: 7.67

Problem: State its inhibition: CCN(CC)S(=O)(=O)c1cccc2c(N(C)C)cccc12
Solution: -4.52

Problem: Answer with the recorded inhibition of CS(=O)(=O)c1ccc2nc(NC(=O)c3cccs3)sc2c1 only.
Solution: 2.95

Problem: Give the reported inhibition for this compound. CC(C)C(OC(=O)c1ccco1)C(=O)NCc1ccccc1 (centres undefined)
Solution: -4.6

Problem: Read off the recorded inhibition for COCCNC(=O)CC(NS(=O)(=O)c1ccc(NC(C)=O)cc1)C(C)C (centres undefined)
Solution: 5

Problem: Check the records and state inhibition for CCC(=O)Nc1ccc(F)c(Cl)c1
Solution: 3.71

Problem: Fill in inhibition for record CCOc1cc(S(=O)(=O)N2CCC(Cc3ccccc3)CC2)c(OCC)cc1-n1cnnn1
Solution: -1.59

Problem: Give inhibition for the following compound: COc1ccccc1CN1C(=S)SC(C)(C)C1NO (centres undefined)
Solution: 2.42

Problem: Answer with the recorded inhibition of Cc1ccc(NC(=O)C2CCCN(S(=O)(=O)c3cnc[nH]3)C2)cc1F (centres undefined) only.
Solution: -3.11

Problem: Entry CCn1c(SCC(=O)c2ccc(OC)cc2)nnc1C(C)NC(=O)c1ccc(OC)cc1 (centres undefined) needs its inhibition filled in; supply it.
Solution: -8.41

Problem: Please indicate inhibition recorded for Cc1ccccc1CN1CCNC1=O
Solution: 6.61

Problem: State its inhibition: C[C@H](NC(=O)Nc1ccccc1F)C(=O)O
Solution: 4.43

Problem: Return inhibition for the following compound: Cc1ccc(OCCC(=O)OCC(=O)C(C)(C)C)cc1
Solution: -3.67

Problem: Supply recorded inhibition for CCCCN(Cc1cc2cc(OC)ccc2[nH]c1=O)C(=O)COc1ccccc1 here.
Solution: 0.82
